molecular target: MDMX (Homo sapiens, UniProt O15151); experiment: Competitive fluorescence polarization assay for MDMX; format: binding; conditions: competitive FP assay, read-out: IC50 (MDMX)
Sequence (O15151 1-125): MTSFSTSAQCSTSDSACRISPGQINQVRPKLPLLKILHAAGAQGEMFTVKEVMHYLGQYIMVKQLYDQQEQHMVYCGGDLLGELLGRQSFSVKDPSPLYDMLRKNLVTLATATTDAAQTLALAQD
pIC50: −log10 of the molar value. Where a SMILES comes first, the peptide text is derived from it. Bridges are numbered along the chain shown (N, C = ends). [ ]: non-standard residue; d: D form. Phe(4-COOH) = N[C@@H](Cc1ccc(C(=O)O)cc1)C(=O)O; R8 = C=CCCCCCC[C@@](C)(N)C(=O)O; Cba = N[C@@H](CC1CCC1)C(=O)O; S5 = C=CCCC[C@](C)(N)C(=O)O; Nle = CCCC[C@H](N)C(=O)O
measure: pIC50

| molecule | testedOn | measure | endpointResult |
| --- | --- | --- | --- |
| CCCC[C@H](NC(=O)[C@H](C)NC(=O)[C@H](CO)NC(=O)[C@]1(C)CCCC=CCCCCCC[C@@](C)(NC(=O)[C@H](Cc2ccccc2)NC(=O)[C@@H](NC(=O)[C@H](CC(C)C)NC(C)=O)[C@@H](C)O)C(=O)N[C@@H](CCC(=O)O)C(=O)N[C@@H](Cc2ccc(C(=O)O)cc2)C(=O)N[C@@H](Cc2c[nH]c3ccccc23)C(=O)N[C@@H](C)C(=O)N[C@@H](CCC(N)=O)C(=O)N[C@@H](CC2CCC2)C(=O)N1)C(=O)N[C@@H](C)C(N)=O [compound 244] (Ac-LTF[R8]E[Phe(4-COOH)]WAQ[Cba][S5]SA[Nle]A-NH2; staple 4-11) | MDMX (Homo sapiens, UniProt O15151) | pIC50 | 7.00 to 8.00 |
| CCCC[C@H](NC(=O)[C@H](C)NC(=O)[C@H](C)NC(=O)[C@]1(C)CCCC=CCCCCCC[C@@](C)(NC(=O)[C@H](Cc2ccccc2)NC(=O)[C@@H](NC(=O)[C@H](CC(C)C)NC(C)=O)[C@@H](C)O)C(=O)N[C@@H](C)C(=O)N[C@@H](Cc2ccc(C(=O)O)cc2)C(=O)N[C@@H](Cc2c[nH]c3ccccc23)C(=O)N[C@@H](C)C(=O)N[C@@H](CCC(N)=O)C(=O)N[C@@H](CCC(C)C)C(=O)N1)C(=O)N[C@@H](C)C(N)=O (single isomer, unassigned) | MDMX (Homo sapiens, UniProt O15151) | pIC50 | 7.00 to 8.00 |
| CC(=O)N[C@@H](CC(C)C)C(=O)N[C@H](C(=O)N[C@@H](Cc1ccccc1)C(=O)N[C@]1(C)CCCCCCC=CCCC[C@@](C)(C(=O)N[C@@H](C)C(=O)N[C@@H](C)C(=O)N[C@@H](CC(C)C)C(=O)N[C@H](C)C(N)=O)NC(=O)[C@H](CC(C)C)NC(=O)[C@H](CCC(N)=O)NC(=O)[C@H](C)NC(=O)[C@H](Cc2c[nH]c3ccccc23)NC(=O)[C@H](Cc2ccc(O)cc2)NC(=O)[C@H](C)NC1=O)[C@@H](C)O (single isomer, unassigned) | MDMX (Homo sapiens, UniProt O15151) | pIC50 | 6.00 to 7.00 |

Incoming: So what's the measured pIC50 for this one? CC(=O)N[C@@H](CC(C)C)C(=O)N[C@H](C(=O)N[C@@H](Cc1ccccc1)C(=O)N[C@]1(C)CCCCCCC=CCCC[C@@](C)(C(=O)N[C@@H](CO)C(=O)N[C@H](C(=O)N[C@@H](CO)C(N)=O)C(C)C)NC(=O)[C@H](CC(C)C)NC(=O)[C@H](CCC(N)=O)NC(=O)[C@H](C)NC(=O)[C@H](Cc2c[nH]c3ccccc23)NC(=O)[C@H](Cc2ccc(O)cc2)NC(=O)[C@H](C)NC1=O)[C@@H](C)O [compound 121] (Ac-LTF[R8]AYWAQL[S5]SVS-NH2; staple 4-11)
Outgoing: 6.00 to 7.00

* * *

biological target: MDMX (Homo sapiens, UniProt O15151); experiment: Competitive fluorescence polarization assay for MDMX; format: binding; conditions: competitive FP assay, read-out: IC50 (MDMX)
Where a SMILES comes first, the peptide text is derived from it. Bridges are numbered along the chain shown (N, C = ends). [ ]: non-standard residue; d: D form. R8 = C=CCCCCCC[C@@](C)(N)C(=O)O; S5 = C=CCCC[C@](C)(N)C(=O)O
measure: IC50

| compound | testedOn | IC50 |
| --- | --- | --- |
| CC(=O)N[C@@H](CC(C)C)C(=O)N[C@H](C(=O)N[C@@H](Cc1ccccc1)C(=O)N[C@]1(C)CCCCCCC=CCCC[C@@](C)(C(=O)N[C@@H](CO)C(=O)N[C@H](C(=O)N[C@@H](CO)C(N)=O)C(C)C)NC(=O)[C@H](CC(C)C)NC(=O)[C@H](CCC(N)=O)NC(=O)[C@H](C)NC(=O)[C@H](Cc2c[nH]c3ccccc23)NC(=O)[C@H](Cc2ccc(O)cc2)NC(=O)[C@H](C(C)C)NC1=O)[C@@H](C)O (single isomer, unassigned) | MDMX (Homo sapiens, UniProt O15151) | 10 to 100 nM |

// below: IC50 requested for another compound
Incoming: Given the compound CC[C@H](C)[C@H](NC(=O)[C@H](Cc1c[nH]cn1)NC(=O)[C@H](C)NC(=O)[C@]1(C)CCCC=CCCCCCC[C@@](C)(NC(=O)[C@H](Cc2ccccc2)NC(=O)[C@@H](NC(=O)[C@H](CC(C)C)NC(C)=O)[C@@H](C)O)C(=O)N[C@@H](C)C(=O)N[C@@H](Cc2c[nH]cn2)C(=O)N[C@@H](Cc2c[nH]c3ccccc23)C(=O)N[C@@H](C)C(=O)N[C@@H](CCC(N)=O)C(=O)N[C@@H](CC(C)C)C(=O)N1)C(=O)N[C@H](C)C(N)=O [compound 207] (Ac-LTF[R8]AHWAQL[S5]AHI[dA]-NH2; staple 4-11) , what is its reported IC50?
Outgoing: 100 to 1000 nM

* * *

molecular target: MDM2 (Homo sapiens); assay: Competitive fluorescence polarization assay for MDM2; format: binding; conditions: competitive FP assay, MDM2; read-out: IC50 (MDM2)
pIC50: −log10 of the molar value. Where a SMILES comes first, the peptide text is derived from it. Bridges are numbered along the chain shown (N, C = ends). [ ]: non-standard residue; d: D form. R8 = C=CCCCCCC[C@@](C)(N)C(=O)O; S5 = C=CCCC[C@](C)(N)C(=O)O
measure: pIC50

| compound | pIC50 |
| --- | --- |
| CC(=O)N[C@@H](Cc1ccccc1)C(=O)N[C@]1(C)CCCCCCC=CCCC[C@@](C)(C(=O)N[C@@H](CCCNC(=N)N)C(=O)N[C@@H](CCCNC(=N)N)C(=O)N[C@@H](CC(=O)O)C(=O)N[C@@H](C)C(N)=O)NC(=O)[C@H](CC(C)C)NC(=O)[C@H](CCC(N)=O)NC(=O)[C@H](Cc2c[nH]cn2)NC(=O)[C@H](Cc2c[nH]c3ccccc23)NC(=O)[C@H](Cc2c[nH]cn2)NC(=O)[C@H](Cc2c[nH]cn2)NC1=O [compound 54] (Ac-F[R8]HHWHQL[S5]RRDA-NH2; staple 2-9) | 6.00 to 7.00 |

Next, consider the following compound.
Incoming: Given the entry CCCC[C@H](NC(=O)[C@H](C)NC(=O)[C@H](C)NC(=O)[C@]1(C)CCCC=CCCCCCC[C@@](C)(NC(=O)[C@H](Cc2ccccc2)NC(=O)[C@@H](NC(=O)[C@H](CC(C)C)NC(C)=O)[C@@H](C)O)C(=O)N[C@@H](C)C(=O)N[C@@H](Cc2ccc(O)cc2)C(=O)N[C@@H](Cc2c[nH]c3ccccc23)C(=O)N[C@@H](CO)C(=O)N[C@@H](CCC(N)=O)C(=O)N[C@@H](CCC(C)C)C(=O)N1)C(=O)N[C@@H](C)C(N)=O (single isomer, unassigned) , report its measured pIC50.
Outgoing: 7.00 to 8.00

* * *

molecular target: MDM2 (Homo sapiens, UniProt Q00987); test: Competitive fluorescence polarization assay for MDM2; type: binding; settings: competitive FP assay, MDM2; read-out: Ki (MDM2)
Sequence (Q00987 1-125): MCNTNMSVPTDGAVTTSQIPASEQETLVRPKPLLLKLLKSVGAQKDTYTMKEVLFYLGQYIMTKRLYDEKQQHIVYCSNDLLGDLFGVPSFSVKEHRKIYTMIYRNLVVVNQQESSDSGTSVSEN
Where a SMILES comes first, the peptide text is derived from it. Bridges are numbered along the chain shown (N, C = ends). [ ]: non-standard residue; d: D form. Trp(6-Cl) = N[C@@H](Cc1c[nH]c2cc(Cl)ccc12)C(=O)O; R8 = C=CCCCCCC[C@@](C)(N)C(=O)O; Cba = N[C@@H](CC1CCC1)C(=O)O; S5 = C=CCCC[C@](C)(N)C(=O)O
measure: Ki

Incoming: Which Ki is listed for CC(=O)N[C@@H](CC(C)C)C(=O)N[C@H](C(=O)N[C@@H](Cc1ccccc1)C(=O)N[C@]1(C)CCCCCCC=CCCC[C@@](C)(C(=O)N[C@@H](CO)C(=O)N[C@@H](C)C(=O)N[C@@H](Cc2ccccc2)C(N)=O)NC(=O)[C@H](CC2CCC2)NC(=O)[C@H](CCC(N)=O)NC(=O)[C@H](C)NC(=O)[C@H](Cc2c[nH]c3cc(Cl)ccc23)NC(=O)[C@H](Cc2ccc(O)cc2)NC(=O)[C@H](CCC(=O)O)NC1=O)[C@@H](C)O [compound 261] (Ac-LTF[R8]EY[Trp(6-Cl)]AQ[Cba][S5]SAF-NH2; staple 4-11) ?
Outgoing: < 10 nM
